- SYSTEM: AKT (Homo sapiens)
- Sequence (P31749 whole entry): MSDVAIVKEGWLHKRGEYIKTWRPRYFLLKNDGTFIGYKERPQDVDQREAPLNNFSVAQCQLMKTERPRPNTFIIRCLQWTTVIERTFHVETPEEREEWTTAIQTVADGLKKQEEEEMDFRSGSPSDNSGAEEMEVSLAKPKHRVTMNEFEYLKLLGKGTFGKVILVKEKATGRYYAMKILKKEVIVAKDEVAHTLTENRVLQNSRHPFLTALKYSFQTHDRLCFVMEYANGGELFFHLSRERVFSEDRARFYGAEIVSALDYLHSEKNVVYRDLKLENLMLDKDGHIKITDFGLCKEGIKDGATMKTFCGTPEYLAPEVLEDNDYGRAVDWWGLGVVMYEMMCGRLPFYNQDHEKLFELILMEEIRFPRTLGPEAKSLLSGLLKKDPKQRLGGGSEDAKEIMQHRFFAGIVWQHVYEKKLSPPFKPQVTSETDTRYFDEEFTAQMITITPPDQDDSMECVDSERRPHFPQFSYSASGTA
- PROTOCOL_NOTES: RBC HotSpot kinase assay (33P-ATP, P81 filter-binding), AKT
- Type: biochemical
- REPORTED_CONDITIONS: Table 28, biochemical kinase assay; read-out: AKT IC50
Give measured IC50 for each item. Keep answers brief.
Numbers only, in µM.

Returns the measured IC50 for the input compound. Input: Cc1cccc(-c2c[nH]c3nccc(-c4ccc(CN)cc4)c23)c1
1.2

Continue with NCc1ccc(-c2ccnc3[nH]cc(-c4cccc(F)c4)c23)cc1
1.41

Continue with COC(=O)c1c[nH]c2nccc(-c3ccc(C(C)(C)N)cc3)c12
1.25

Continue with C[C@@H]1CN(Cc2ccccc2)C[C@H](C)[C@@]1(O)c1c(F)cc(-c2ccnc3[nH]cc(F)c23)cc1F
2.09

Would you be so kind as to report IC50 for each listed record?
1. CC(C)(N)c1ccc(-c2ccnc3[nH]cc(F)c23)cc1
2. CC(C)(N)c1ccc(-c2ccnc3[nH]ccc23)cc1Cl
3. Fc1c[nH]c2nccc(-c3ccc(C4(C(F)(F)F)CCNCC4)cc3Cl)c12
4. NCc1ccc(-c2cc(-c3ccncc3)nc3[nH]ccc23)cc1
5. OC1(c2ccc(-c3ccnc4[nH]cc(F)c34)cc2Cl)CCN2CCCC2C1 (stereo not drawn)

[0.229, 0.437, 0.085, 8.83, 0.771]

====

- SYSTEM: UniProtKB Q9NRM7
- Sequence (Q9NRM7 1-1088): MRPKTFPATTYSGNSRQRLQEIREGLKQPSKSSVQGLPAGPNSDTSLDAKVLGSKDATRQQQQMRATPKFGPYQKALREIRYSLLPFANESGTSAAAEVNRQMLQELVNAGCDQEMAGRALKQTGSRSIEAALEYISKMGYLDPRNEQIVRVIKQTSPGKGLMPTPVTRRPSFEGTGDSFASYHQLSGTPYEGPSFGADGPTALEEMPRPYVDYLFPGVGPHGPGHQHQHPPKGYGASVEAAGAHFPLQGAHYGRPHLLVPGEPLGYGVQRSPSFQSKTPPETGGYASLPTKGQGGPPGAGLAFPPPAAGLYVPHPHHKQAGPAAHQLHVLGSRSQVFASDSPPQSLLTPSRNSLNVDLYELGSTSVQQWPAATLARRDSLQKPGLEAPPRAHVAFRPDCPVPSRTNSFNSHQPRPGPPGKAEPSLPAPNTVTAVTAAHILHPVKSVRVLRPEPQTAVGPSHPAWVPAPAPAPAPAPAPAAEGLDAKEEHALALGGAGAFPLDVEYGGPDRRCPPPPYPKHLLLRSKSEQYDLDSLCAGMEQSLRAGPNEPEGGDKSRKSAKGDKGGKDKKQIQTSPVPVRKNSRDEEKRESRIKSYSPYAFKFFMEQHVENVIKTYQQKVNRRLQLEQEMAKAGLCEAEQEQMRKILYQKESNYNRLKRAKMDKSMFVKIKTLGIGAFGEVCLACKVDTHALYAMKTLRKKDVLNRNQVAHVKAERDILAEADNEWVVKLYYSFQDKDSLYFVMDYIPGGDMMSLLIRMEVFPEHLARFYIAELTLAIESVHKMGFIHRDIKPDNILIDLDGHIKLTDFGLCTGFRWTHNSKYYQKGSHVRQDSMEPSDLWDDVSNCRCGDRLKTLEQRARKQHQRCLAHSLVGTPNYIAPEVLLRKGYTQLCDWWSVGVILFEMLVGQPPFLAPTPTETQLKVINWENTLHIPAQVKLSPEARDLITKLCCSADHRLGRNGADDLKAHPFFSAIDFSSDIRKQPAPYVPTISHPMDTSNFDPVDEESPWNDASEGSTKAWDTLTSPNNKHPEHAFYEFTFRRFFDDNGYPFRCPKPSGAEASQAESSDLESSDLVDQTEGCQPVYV
- PROTOCOL_NOTES: RBC HotSpot kinase assay (33P-ATP, P81 filter-binding), LATS2
- Format: biochemical
- REPORTED_CONDITIONS: Table 28, biochemical kinase assay; read-out: LATS2 IC50
QUANTITY_MEASURED: IC50 (nM)
Answers are plain numbers, in nM.

Returns the measured IC50 for the input compound. Input: NCc1ccc(-c2ccnc3[nH]cc(Cl)c23)cc1Cl [Compound 249]
7.9

Would you be so kind as to report IC50 for each listed record?
1. Cc1cc(-c2ccnc3[nH]cc(F)c23)cc(F)c1[C@@]1(O)[C@H](C)CN(C(=O)[C@@H](CO)N(C)C)C[C@@H]1C [Compound 313]
2. NCc1ccc(-c2cc(-c3ccnc4[nH]cc(F)c34)ccc2C2CCNCC2)cc1 [Compound 149]
3. CN[C@@H](C)C(=O)N1C[C@@H](C)[C@](O)(c2c(C)cc(-c3ccnc4[nH]cc(F)c34)cc2F)[C@@H](C)C1 [Compound 315]
4. Cc1cc(-c2ccnc3[nH]cc(F)c23)ncc1[C@@]1(O)[C@H](C)CN(C)C[C@@H]1C [Compound 44]
5. COC(=O)c1c[nH]c2nccc(-c3cc(C)c([C@@]4(O)[C@H](C)CN(C(=O)CN)C[C@@H]4C)c(F)c3)c12 [Compound 310]
6. C[C@@H]1CN(C2CCS(=O)(=O)CC2)C[C@H](C)C1(O)c1cnc(-c2ccnc3[nH]cc(F)c23)cc1F (some centres unmarked) [Compound 35]

1.6
1
5.7
19.6
2.3
63.4

Would you be so kind as to report IC50 for each listed record?
1. CC(C)(N)c1ccc(-c2ccnc3[nH]cc(Br)c23)cc1 [Compound 210]
2. Cc1c[nH]c2nccc(-c3cc(F)c([C@@]4(O)[C@H](C)CNC[C@@H]4C)c(F)c3)c12 [Compound 15]

1: 4.7; 2: 7.2

Would you be so kind as to report IC50 for each listed record?
1. COC(=O)c1c[nH]c2nccc(-c3ccc(CN)c(C)c3)c12 [Compound 213]
2. Fc1c[nH]c2nccc(-c3ccc(C4(C(F)(F)F)CCNCC4)cc3Cl)c12 [Compound 197]
3. C[C@@H]1CN(C)C[C@H](C)[C@@]1(O)c1ccc(-c2ccnc3[nH]cc(F)c23)cc1 [Compound 39]
4. NCc1ccc(-c2cc(-c3ccnc4[nH]cc(Br)c34)ccc2C2CCNCC2)cc1 [Compound 151]
5. NCc1ccc(-c2ccnc3[nH]cc(-c4cccnc4)c23)cc1 [Compound 245]
6. Cc1c[nH]c2nccc(-c3ccc([C@@]4(O)[C@H](C)CNC[C@@H]4C)cn3)c12 [Compound 3]
7. NCC(=O)N1CC2(C1)CC(O)(c1c(F)cc(-c3ccnc4[nH]cc(F)c34)cc1F)C2 [Compound 145]
8. Fc1cc(C2CCNCC2)ccc1-c1ccnc2[nH]ccc12 [Compound 181]

14.7
195
24.7
15.1
24
49.6
46
87

====

- SYSTEM: LATS1 (Homo sapiens)
- Sequence (O95835 1-1130): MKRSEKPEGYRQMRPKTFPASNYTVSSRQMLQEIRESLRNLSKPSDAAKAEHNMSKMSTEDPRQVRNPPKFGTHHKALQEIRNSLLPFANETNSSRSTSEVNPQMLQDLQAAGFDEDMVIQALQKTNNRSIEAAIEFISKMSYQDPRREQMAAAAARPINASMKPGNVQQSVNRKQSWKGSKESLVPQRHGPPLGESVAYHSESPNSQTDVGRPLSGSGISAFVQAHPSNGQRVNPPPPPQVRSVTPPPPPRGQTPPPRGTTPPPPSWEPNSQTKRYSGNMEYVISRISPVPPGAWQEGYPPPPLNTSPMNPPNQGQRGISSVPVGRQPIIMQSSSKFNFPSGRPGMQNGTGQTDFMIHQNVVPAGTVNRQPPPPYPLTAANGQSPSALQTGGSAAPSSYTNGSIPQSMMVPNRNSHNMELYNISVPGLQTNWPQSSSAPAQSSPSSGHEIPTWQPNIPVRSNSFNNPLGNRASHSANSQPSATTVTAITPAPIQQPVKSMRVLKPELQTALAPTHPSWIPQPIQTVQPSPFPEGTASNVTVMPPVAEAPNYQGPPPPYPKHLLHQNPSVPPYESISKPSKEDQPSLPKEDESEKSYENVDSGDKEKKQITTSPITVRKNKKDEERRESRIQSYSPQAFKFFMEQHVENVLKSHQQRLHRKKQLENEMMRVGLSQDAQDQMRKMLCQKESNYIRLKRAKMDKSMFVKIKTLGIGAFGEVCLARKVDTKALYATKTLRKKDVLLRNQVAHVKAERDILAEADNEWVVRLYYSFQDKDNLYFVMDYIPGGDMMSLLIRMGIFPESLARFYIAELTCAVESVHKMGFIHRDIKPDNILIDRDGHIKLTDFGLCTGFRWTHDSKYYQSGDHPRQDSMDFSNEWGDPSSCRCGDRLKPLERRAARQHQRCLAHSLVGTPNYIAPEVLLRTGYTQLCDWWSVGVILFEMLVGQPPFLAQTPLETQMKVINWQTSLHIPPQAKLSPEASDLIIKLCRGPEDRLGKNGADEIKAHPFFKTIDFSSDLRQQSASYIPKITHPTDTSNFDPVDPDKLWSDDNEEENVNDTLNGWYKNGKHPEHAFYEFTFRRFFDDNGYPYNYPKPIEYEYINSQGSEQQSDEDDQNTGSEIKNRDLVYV
- PROTOCOL_NOTES: RBC HotSpot kinase assay (33P-ATP, P81 filter-binding), LATS1
- Format: biochemical
- REPORTED_CONDITIONS: Table 28, biochemical kinase assay; read-out: LATS1 IC50
QUANTITY_MEASURED: log10(IC50) (log10 of the value in nM)
All values: base-10 log of IC50 in nM.

Would you be so kind as to report log10(IC50) for each listed record?
1. Cc1cc(-c2ccnc3[nH]cc(F)c23)cc(F)c1[C@@]1(O)[C@H](C)CN(C(=O)C2(N)CC(F)(F)C2)C[C@@H]1C
2. Cc1cc(-c2ccnc3[nH]cc(F)c23)ccc1[C@@]1(O)[C@H](C)CN(C2CCS(=O)(=O)CC2)C[C@@H]1C
3. COC(=O)c1c[nH]c2nccc(-c3ccc(CN)c(-c4ccccc4)c3)c12

1. 1.29
2. 0.95
3. 1.04

Would you be so kind as to report log10(IC50) for each listed record?
1. CC(C)(C)Nc1cc(-c2ccnc3[nH]ccc23)ccc1C1CCNCC1
2. OC1(c2ccc(-c3ccnc4[nH]cc(F)c34)cc2)C[C@H]2CC[C@@H](C1)N2 (stereo partly drawn)
3. C[C@@H]1CN(Cc2ccncc2)C[C@H](C)[C@@]1(O)c1c(F)cc(-c2ccnc3[nH]cc(F)c23)cc1F
4. C[C@@H]1CN(C2CCS(=O)(=O)CC2)C[C@H](C)[C@@]1(O)c1ccc(-c2ccnc3[nH]cc(F)c23)cc1Cl

1: 2.33; 2: 1.36; 3: 1.04; 4: -0.14
